The measured values listed here are drawn from BindingDB's records for doi:10.1016/j.bmcl.2003.10.030.

protocol notes: Inhibitory activity against Vascular endothelial growth factor receptor
Binarize IC50 at 5 nM; below is Y, at or above is N.

For this compound, is IC50 lower than 5 nM? Nc1ncnc2cc(-c3ccccc3)sc12
N

Also c1ccc(-c2cc3ncnc(Nc4ccc5nn[nH]c5c4)c3s2)cc1 ?
N

Also OCCCNCc1ccc(-c2cc3nccc(Nc4ccc5[nH]ccc5c4)c3s2)cc1 ?
Y

Also Cc1cc2cc(Nc3ccnc4cc(-c5ccc(CNCCO)cc5)sc34)ccc2[nH]1 ?
Y

Others:
For this compound, is IC50 lower than 5 nM? c1ccc(Nc2ccc(Nc3ncnc4cc(-c5ccccc5)sc34)cc2)cc1
N

Also Cn1ccc2cc(Nc3ncnc4cc(-c5ccccc5)sc34)ccc21 ?
N

Also O=C(Cc1cc2ncnc(Nc3ccc4[nH]ccc4c3)c2s1)c1ccccc1 ?
N

Also Cc1cc2cc(Nc3ccnc4cc(-c5ccc(CN(C)CCO)cc5)sc34)ccc2[nH]1 ?
Y

Also CN(CCO)Cc1ccc(-c2cc3nccc(Nc4ccc5[nH]ccc5c4)c3s2)cc1 ?
Y

Also NCc1ccc(-c2cc3ncnc(Nc4ccc5[nH]ccc5c4)c3s2)cc1 ?
N

Also CC(=O)NCCNCc1ccc(-c2cc3nccc(Nc4ccc5[nH]ccc5c4)c3s2)cc1 ?
N

Also CC(C)(CO)NCc1ccc(-c2cc3ncnc(Nc4ccc5[nH]ccc5c4)c3s2)cc1 ?
N

Also CC(=O)NCCNCc1ccc(-c2cc3ncnc(Nc4ccc5[nH]ccc5c4)c3s2)cc1 ?
Y

Also OCCNCc1ccc(-c2cc3nccc(Nc4ccc5[nH]ccc5c4)c3s2)cc1 ?
N

Also Cc1cc2cc(Nc3ncnc4cc(-c5ccccc5)sc34)ccc2[nH]1 ?
N

Also c1ccc(CNc2ncnc3cc(-c4ccccc4)sc23)cc1 ?
N

Also c1csc(-c2cc3nccc(Nc4ccc5[nH]ccc5c4)c3s2)c1 ?
N

Also CN(C)c1ccc(Nc2ncnc3cc(-c4ccccc4)sc23)cc1 ?
N

---

system tested: Vascular endothelial growth factor receptor 1 (Homo sapiens, UniProt P17948)
Sequence (P17948 whole entry): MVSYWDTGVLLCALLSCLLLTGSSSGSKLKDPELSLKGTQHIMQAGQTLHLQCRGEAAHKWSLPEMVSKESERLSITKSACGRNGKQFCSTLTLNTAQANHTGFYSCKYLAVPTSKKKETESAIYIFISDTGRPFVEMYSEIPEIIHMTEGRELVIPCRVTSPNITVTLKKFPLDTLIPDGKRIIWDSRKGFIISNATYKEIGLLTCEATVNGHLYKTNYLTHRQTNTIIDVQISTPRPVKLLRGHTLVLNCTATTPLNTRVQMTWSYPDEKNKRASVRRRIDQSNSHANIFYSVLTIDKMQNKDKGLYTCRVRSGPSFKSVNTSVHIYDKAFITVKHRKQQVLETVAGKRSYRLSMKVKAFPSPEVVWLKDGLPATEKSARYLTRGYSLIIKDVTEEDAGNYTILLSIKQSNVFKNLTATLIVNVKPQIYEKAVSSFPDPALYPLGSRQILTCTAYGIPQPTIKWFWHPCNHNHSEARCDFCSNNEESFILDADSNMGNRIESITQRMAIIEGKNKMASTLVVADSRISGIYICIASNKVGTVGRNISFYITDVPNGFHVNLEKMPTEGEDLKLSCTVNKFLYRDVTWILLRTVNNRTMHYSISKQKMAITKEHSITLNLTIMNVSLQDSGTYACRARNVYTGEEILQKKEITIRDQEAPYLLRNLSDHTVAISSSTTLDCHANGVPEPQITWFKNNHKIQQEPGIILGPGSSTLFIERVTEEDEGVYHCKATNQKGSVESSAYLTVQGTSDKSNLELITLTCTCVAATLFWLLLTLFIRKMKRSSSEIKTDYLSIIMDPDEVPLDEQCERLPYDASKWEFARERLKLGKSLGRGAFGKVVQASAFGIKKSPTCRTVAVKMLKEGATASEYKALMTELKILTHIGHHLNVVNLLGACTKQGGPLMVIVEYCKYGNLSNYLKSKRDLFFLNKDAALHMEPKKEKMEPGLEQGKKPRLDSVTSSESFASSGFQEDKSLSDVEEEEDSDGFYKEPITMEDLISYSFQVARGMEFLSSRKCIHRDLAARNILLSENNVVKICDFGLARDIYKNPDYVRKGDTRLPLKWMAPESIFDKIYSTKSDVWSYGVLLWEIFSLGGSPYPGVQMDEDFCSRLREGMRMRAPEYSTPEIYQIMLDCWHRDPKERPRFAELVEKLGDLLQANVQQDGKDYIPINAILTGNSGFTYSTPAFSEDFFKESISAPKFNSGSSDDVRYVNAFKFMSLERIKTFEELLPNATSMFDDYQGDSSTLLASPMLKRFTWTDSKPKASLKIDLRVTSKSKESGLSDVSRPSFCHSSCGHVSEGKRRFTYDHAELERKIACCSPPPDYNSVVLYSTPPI
parameter measured: IC50 (nM)
The response must be a number in nM with no trailing unit.

Any idea what its IC50 is? The compound is c1csc(-c2cc3ncnc(Nc4ccc5[nH]ccc5c4)c3s2)c1
130

---

Reported IC50 is given for each of the following molecules.
protocol notes: Inhibitory activity against Vascular endothelial growth factor receptor
The response must be a number in nM with no trailing unit.

Field: example entries. Status: answers known.
Any idea what its IC50 is? The molecule is Brc1cc2ncnc(Nc3ccc4[nH]ccc4c3)c2s1
220

Also c1cc(Nc2ccc3[nH]ccc3c2)c2sc(-c3ccc(CN4CCOCC4)cc3)cc2n1 ?
5

Also c1ccc(NCCN(c2cc3ncnc(Nc4ccc5[nH]ccc5c4)c3s2)n2cccc2)cc1 ?
43

Also NC(=O)c1ccc(Nc2ncnc3cc(-c4ccccc4)sc23)cc1 ?
250

Also CNc1ccc(Nc2ncnc3cc(-c4ccccc4)sc23)cc1 ?
190

Others:
Any idea what its IC50 is? The molecule is Cc1c[nH]c2ccc(Nc3ncnc4cc(-c5ccccc5)sc34)cc12
290

Also OCc1ccc(-c2cc3ncnc(Nc4ccc5[nH]ccc5c4)c3s2)cc1 ?
56

Also c1nc(Nc2ccc3[nH]ccc3c2)c2sccc2n1 ?
1410

Also CCCNC(=O)c1cc2ncnc(Nc3ccc4[nH]ccc4c3)c2s1 ?
2000

Also c1ccc(-c2cc3ncnc(Nc4ccc5[nH]ncc5c4)c3s2)cc1 ?
620

Also O=C(c1ccccc1)c1cc2ncnc(Nc3ccc4[nH]ccc4c3)c2s1 ?
770
